Provenance of the data: patent US20090022728A1

Below, each entry is listed with its recorded kon.
Target: T1, biotinylated Aβ1-40 peptide (biotinylated (N-biotinylated in Example 7))
T1 construct: captured on streptavidin (SA) chip; also called Biotinylated Aβ peptide 1-40; Aβ1-40 on SA chip
T1 sequence (peptide, as listed by the source): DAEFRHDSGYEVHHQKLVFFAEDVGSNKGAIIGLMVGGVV
Assay: SPR, Fab over Aβ1-40 on SA chip; kon may be assumed = 9TL (footnote 2)
Note: state the figure and append the unit.

Worked examples, 2 binders total:
# BINDER, PROPERTY NAME, VALUE
records = [
    ("9TL variant M29 Fab (Fab, V domains shown, Fab; human IgG2 CH1 and kappa CL) VH: QVQLVQSGAEVKKPGASVKVSCKASGYYTEAYYIHWVRQAPGQGLEWMGRIDPATGNTKYAPRLQDRVTMTRDTSTSTVYMELSSLRSEDTAVYYCASLYSLPVYWGQGTTVTVSS VL: DVVMTQSPLSLPVTLGQPASISCKSSQSLLYSDAKTYLNWFQQRPGQSPRRLIYQISRLDPGVPDRFSGSGSGTDFTLKISRVEAEDVGVYYCLQGTHYPVSFGQGTRLEIKR", "kon", "318000 M⁻¹ s⁻¹"),
    ("9TL variant M37 Fab (Fab, V domains shown, Fab; human IgG2 CH1 and kappa CL) VH: QVQLVQSGAEVKKPGASVKVSCKASGYYTEAYYIHWVRQAPGQGLEWMGRIDPATGNTKYAPRLQDRVTMTRDTSTSTVYMELSSLRSEDTAVYYCASLYSAPVYWGQGTTVTVSS VL: DVVMTQSPLSLPVTLGQPASISCKSSQSLLYSDAKTYLNWFQQRPGQSPRRLIYQISRLDPGVPDRFSGSGSGTDFTLKISRVEAEDVGVYYCLQGTHYPVLFGQGTRLEIKR", "kon", "318000 M⁻¹ s⁻¹"),
]

Note: attention shifts to another entry.
According to the records, this binder 9TL variant M4 Fab (Fab, V domains shown, Fab; human IgG2 CH1 and kappa CL) VH: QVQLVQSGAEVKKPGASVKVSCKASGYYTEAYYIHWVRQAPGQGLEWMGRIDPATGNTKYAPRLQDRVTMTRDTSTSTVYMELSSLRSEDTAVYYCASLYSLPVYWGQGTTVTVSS VL: DVVMTQSPLSLPVTLGQPASISCKSSQSLLYSDAKTYLNWFQQRPGQSPRRLIYQISRLDPGVPDRFSGSGSGTDFTLKISRVEAEDVGVYYCFQGTHYPVLFGQGTRLEIKR displays kon of 318000 M⁻¹ s⁻¹
